# Test system: HL-60(TB) leukemia
# protocol.text: NCI tumour cell line growth inhibition, 48 h
property.measured: TGI

Inquiry: Consider the compound CC(C)CCC[C@@H](C)C1CCC2[C@@H]3CC=C4C[C@@H](C(=O)NCCN(C)C)CC[C@]4(C)C3CC[C@@]21C (stereo partly specified) . State its measured TGI.
Reply text: > 100 µM

Inquiry: Using known records, supply TGI for O=C(Nc1cc(Nc2ncccc2-c2ncnc3nc[nH]c23)ccc1F)c1cc(C(F)(F)F)cc(C(F)(F)F)c1
Reply text: 8.44 µM

Inquiry: Kindly indicate its recorded TGI. Item: CCc1ccc2c(c1)C(=O)c1c-2n(CCCN=[N+]=[N-])c(=O)c2cc([N+](=O)[O-])ccc12
Reply text: > 50 µM

Inquiry: Fill in reported TGI for this entry: O=C(O)c1cccc(COc2ccc([N+](=O)[O-])cc2Cl)c1
Reply text: > 100 µM

Inquiry: Consider the compound CC(=O)OCC1OC(n2cc(I)c(=O)[nH]c2=O)C(OC(C)=O)C(OC(C)=O)C1OC(C)=O (stereo unspecified) . State its measured TGI.
Reply text: > 100 µM

Inquiry: Give me measured TGI, please, for this compound: CC(=O)O/N=C/c1c2ccccc2cc2ccccc12
Reply text: > 100 µM

Inquiry: Output measured TGI for this item: CC1=C(C#N)C(=O)CC(c2ccc(Cl)cc2)N(C)N1 (stereo unspecified)
Reply text: > 100 µM

Inquiry: Report measured TGI; entry is CCN(CC)CCCCCCNc1cccc2cc(Br)cnc12
Reply text: 4.65 µM

Inquiry: Fill in reported TGI for this entry: CCCc1cc(=O)n2c(C(=O)Nc3ccc(Cl)cc3C)c(C(=O)Nc3ccc(F)cc3)sc2n1
Reply text: 23.8 µM

Inquiry: Identify TGI associated with the compound CSC(=Nc1ccccc1)N(c1ccccc1)c1nc(=[N+](C)C)ss1
Reply text: 3.2 µM

Inquiry: Please list TGI recorded for the compound COc1ccc(-c2nccn2-c2ccc(OC)cc2)cc1
Reply text: 34.2 µM

Inquiry: Please give the documented TGI of COc1cc(/C=C2\[C@H]3c4c(c(OC)c(C)c(OC)c4OC)CC(C(=O)N2Cc2ccccc2)N3C)c(OC)c(C)c1OC
Reply text: 36 µM

Inquiry: Tell me measured TGI for O=C1Nc2ccccc2/C1=C1\CCc2cc(O)ccc21 please.
Reply text: > 21.5 µM

Inquiry: Supply TGI value. Item: Nc1ccccc1C(=O)/C=C/c1c(O)ccc2ccccc12
Reply text: > 100 µM

Inquiry: Give the reported TGI for this compound. CCc1c[n+]([O-])c(C)cc1[N+](=O)[O-]
Reply text: > 100 µM

Inquiry: Given the compound COc1ccc(-c2oc(/C=N/NC(N)=S)c([N+](=O)[O-])c2-c2ccc(OC)c(OC)c2)cc1OC , write its reported TGI.
Reply text: 55 µM

Inquiry: Tell me its TGI given NNCCc1ccc(NC(=O)CCCc2ccc(C(=O)Nc3ccccc3N)cc2)cc1 as the entry.
Reply text: 25 µM

Inquiry: Using known records, supply TGI for c1csc(-c2ccc(-c3cccs3)c3nsnc23)c1
Reply text: 27.1 µM

Inquiry: Read the entry COc1cc2c(Nc3cc(Cl)c(OC)c(Cl)c3)c(C#N)cnc2cc1OCCCN1CCN(C)CC1 and write its reported TGI.
Reply text: 4.03 µM

Inquiry: Output measured TGI for this item: Cc1cc2c(c(C(N)=O)c1C)-c1ccccc1C2=O
Reply text: > 100 µM

Inquiry: State, in one line, measured TGI of ClCCN(CCCl)c1ccc(CNc2ccccc2)cc1
Reply text: 54 µM
